PROTOCOL_TEXT: inhibition of 3D7 malaria parasite growth – strain 3D7 (AID 2306);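 note: 0% = DMSO wells and 100% = chloroquine plus artemisinin control wells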
MEASUREMENT_CONDITIONS: P. falciparum 3D7 erythrocytic growth, LDH absorbance, 72 h; at 2 µM; active compounds read high
PROPERTY_MEASURED: growth inhibition (%)
Give the number; % is assumed, so skip it.

• CN(C)CC1CCCN1Cc1ccccc1-c1cnn(C)c(=O)c1Oc1cccc(C#N)c1 (stereo not given) = 92
• O=c1cc(NCCCNCc2cc3c(Cl)cc(Cl)cc3[nH]2)[nH]c2ccccc12 = 101
• O=C(Cc1cccc2ccccc12)N1CCc2cc3nccc(N4CCN5CCC[C@H]5C4)c3cc21 = 101
• Cc1ccccc1C1CCN(C2CCC(NC(=O)/C=C/c3ccc(F)c(F)c3)CC2)CC1 (stereo not given) = 93
• O=C(NCCCN1CCN(c2cccc(Cl)c2)CC1)c1ccc(-c2nc3cc(Cl)c(Cl)cc3[nH]2)cc1 = 98

(Q) Item C/C(=C\C(=O)NC1CC1)c1ccccc1OCc1ccccc1 has what recorded growth inhibition?
(A) 90

(Q) # get_value(readout='growth inhibition', item= O=C(Nc1ccc(Br)cc1)c1cc(Br)ccc1NS(=O)(=O)c1cc(C(F)(F)F)cc(C(F)(F)F)c1 )
(A) 85

(Q) Value lookup for growth inhibition; key = CCOc1cc(NCCSCc2nc[nH]c2C)nc2ccccc12
(A) 92

(Q) Can you share its growth inhibition? I mean this compound: Cc1ccc(NC(=O)c2ccc(NCCCN(C)Cc3ccccc3)c([N+](=O)[O-])c2)cc1F
(A) 101

(Q) Data request, read-out growth inhibition, for NCCCCNc1cc(-c2ccnc(Nc3cccc(Cl)c3)n2)ccn1
(A) 94

###

Measured growth inhibition, listed per entry.
PROTOCOL_TEXT: antimalarial activity against Dd2 strain (AID 2302);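 note: 0% = DMSO untreated growth and 100% = chloroquine plus artemisinin killed control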
MEASUREMENT_CONDITIONS: P. falciparum Dd2 in RBCs, LDH growth readout, 72 h; at 2 µM; active compounds read high
The reply should contain only the number, in %.

- O=C(O)c1ccc(OCOCOc2ccc(C(=O)O)c(O)c2)cc1O: 0
- CCNc1cc(C(=O)N[C@@H](Cc2ccccc2)[C@H](O)CN[C@H]2CCc3ccccc32)cc(N2CCCC2=O)c1: 99

(Q) Record request: growth inhibition value, item O=C(Nc1ccc(C(F)(F)F)cc1)Nc1cccc([N+](=O)[O-])c1
(A) 98

(Q) growth inhibition for COc1ccccc1Nc1nc(C)cc(NCc2ccc(-n3ccnc3)cc2)n1 ?
(A) 10

(Q) Query: growth inhibition; subject: COc1ccc2nccc([C@@H](O)CN3CCC(NC(=O)C(c4cc5ccccc5s4)N4CCN(c5ccccc5OC)CC4)CC3)c2c1 (some centres undefined)
(A) 88

(Q) Field request: growth inhibition | item: CCN(CCO)CCc1cccc(Nc2nccc(-c3c(-c4ccc(NC(=O)C(C)(C)C)cc4)nn4ccccc34)n2)c1
(A) 96

(Q) Query: growth inhibition; subject: COc1cccc(CC(=O)N2CCC(n3c(C)nc4ccc(F)cc43)CC2)c1
(A) 99

(Q) // query growth inhibition value for entry CCNc1cc(C(=O)N[C@@H](Cc2cccc(F)c2)[C@H](O)CNC(C)CCCC(C)C)cc(N2CCCCS2(=O)=O)c1 (some centres undefined)
(A) 97

(Q) Recorded growth inhibition of CCc1c[nH]c2c(N(c3ccccc3)S(C)(=O)=O)cc(C(=O)N[C@@H](Cc3ccccc3)[C@H](O)CNC(C)(C)CCCC(C)C)cc12 , please.
(A) 96

(Q) # growth inhibition lookup, item COc1ccc2nccc([C@@H](O)CN3CCC(NCc4cc5c(Cl)cc(Cl)cc5[nH]4)CC3)c2c1
(A) 86

###

PROTOCOL_TEXT: human hepatoma cell viability loss – ATP luminescence, cytotoxicity control for P. falciparum antimalarial project, primary screen (AID 2303);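 note: 0% = DMSO wells and 100% = digitonin-killed cells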
MEASUREMENT_CONDITIONS: HepG2 viability, 24-48 h, at 10 µM, active compounds read high
PROPERTY_MEASURED: inhibition (%)
Respond with the bare value in %.

* CC(C)N1CCN(c2ccc(OCCCN3CCN(c4cccc(Cl)c4Cl)CC3)c(C(F)(F)F)c2)CC1 | 79
* O=C(Nc1cncc(NC(=O)c2ccc(Cl)c(Cl)c2)c1)c1ccc(Cl)c(Cl)c1 | 12
* CCOc1ccc(/C=C/C(=O)Nc2cccc3c2CCN(C)C3)cc1 | -2
* O=[N+]([O-])c1ccc(N2CCCN(C(=S)Nc3ccc(F)cc3Br)CC2)nc1 | 4

--- query ---
(Q) GET /values?readout=inhibition&item= COc1ccc2nc(NC3=NC(c4ccccn4)(c4ccccn4)C(=O)N3C)[nH]c2c1
(A) 65

###

PROTOCOL_TEXT: antimalarial activity against Dd2 strain (AID 2302);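 note: 0% = DMSO untreated growth and 100% = chloroquine plus artemisinin killed control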
MEASUREMENT_CONDITIONS: P. falciparum Dd2 in RBCs, LDH growth readout, 72 h; at 2 µM
Active and inactive are the calls of the source.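 How the source made its calls: active means growth inhibition above 50% at the single 2 µM test dose, taken to imply half-maximal potency below 2 µM; inactive means the rest.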
Mark one answer only. Choices: active, inactive

The examples below pair each entry with its known result.
• Cn1c(=O)c2cc(C(=O)NCCCN3CCCCCC3)sc2c2ccccc21 = active
• O=C(NC1CC1)c1cnc(N2CCN(Cc3c(F)cccc3Cl)CC2)c(Cl)c1 = active
• COc1ccc(-c2cn3c(C(=O)Nc4ccccc4Cl)c(-c4ccccc4)c4c3n2CCCC4)cc1 = inactive

(Q) Dear all, I need the recorded test outcome for C=CCc1cc(Cc2cnc(N)nc2N)c2ccc(C)nc2c1OC , thank you.
(A) inactive

(Q) Can you look up the reported call for Cc1cc(OCC2CCN(c3ncc(C(=O)NC4CC4)cc3Cl)CC2)ccc1F for me?
(A) active

(Q) In this assay, the call recorded for Fc1ccc2nccc(NN=CC=Cc3ccccc3)c2c1 was what?
(A) active

(Q) Hello, I am checking results. What call was entered for CCCCNCc1ccc(-c2nc(CN(C(=O)Nc3cc([N+](=O)[O-])ccc3F)C3Cc4ccccc4C3)cs2)cc1 ?
(A) inactive

(Q) Dear all, I need the recorded test outcome for CN(C)CCN(C)Cc1cccc(-c2ccc3c(Nc4ccc(F)cc4Cl)ccnc3c2)c1 , thank you.
(A) active

(Q) Returns: the outcome recorded for c1cc(CN2CCN(c3ccncc3)CC2)cc(-c2ccc(-c3nc4ccccc4[nH]3)cc2)c1 in this assay.
(A) active

(Q) Per the assay record, what outcome was assigned to COc1ccc2c(NN=Cc3ccccc3[N+](=O)[O-])ccnc2c1 ?
(A) active

###

PROTOCOL_TEXT: human hepatoma cell viability loss – ATP luminescence, cytotoxicity control for P. falciparum antimalarial project, primary screen (AID 2303);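 note: 0% = DMSO wells and 100% = digitonin-killed cells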
MEASUREMENT_CONDITIONS: HepG2 viability, 24-48 h, at 10 µM
Activity calls are given as the source filed them.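 The calls were made as follows: active = inhibition above 50%; inactive = the rest.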
Thanks in advance; please answer with one of these: 1 (active), 0 (inactive)

Please review the entries below; each comes with its answer.
* COc1ccc2nccc([C@@H](O)CN3CCC(NC(=O)C(c4cc5ccccc5o4)N4CCN(C(c5ccccc5)c5ccccc5)CC4)CC3)c2c1 (some centres undefined) | 0
* O=C(Nc1cccc(C(F)(F)F)c1)c1cccc(S(=O)(=O)NCC2CCCN2CC2CCCCC2)c1 (centres undefined) | 0
* Oc1cccc(CCNCCCCCCNCCc2ccc(Cl)cc2)c1 | 0
* O=C(NCc1ccc(F)cc1)Nc1cccc(-c2ccc(-c3nc4ccc(F)cc4[nH]3)cc2)c1 | 0
* Cc1noc(C)c1-c1ccc2c(Nc3nccc4ccccc34)c(C(N)=O)cnc2c1 | 1
* O=C(/C=C/c1c[nH]c2ccccc12)NCCCCCN1CCC(c2c[nH]c3ccccc23)CC1 | 0

(Q) Field: outcome | Entry: CCCN(C(=O)c1ccccc1C)c1nnc(-c2ccccc2C)s1
(A) 0

(Q) What outcome does the record of this test show for CN(C)CCC1CCCc2ccc(NC(=O)Nc3cccc(Cl)c3Cl)cc21 (centres undefined) ?
(A) 0

(Q) GET /call?item= COc1ccc(Cn2c(Nc3cccc(C(F)(F)F)c3)nc3cc(C(=O)NC4CC4)cnc32)cc1Cl returns the recorded outcome of this test.
(A) 0

(Q) Look up the recorded call for CCOc1ccc(C(=O)N2CCOC(CCN3CCC4(CCc5ccccc54)CC3)(c3ccc(Cl)c(Cl)c3)C2)cc1 (centres undefined) in this test.
(A) 0

(Q) What outcome does the record of this test show for CO/C(=C\C=C\c1cc2cc(Cl)c(Cl)cc2[nH]1)C(=O)NC1C[C@@H](C)N(C)[C@@H](C)C1 (some centres undefined) ?
(A) 1

(Q) Please state the recorded outcome for this compound: NC(N)=Nc1nc(-c2ccc(N=C(N)N3CCC[C@H]3CN3CCCC3)cc2)cs1
(A) 0

(Q) In this assay, the call recorded for CCOc1ccc2c(NN=Cc3cc(OC)c(OC)cc3OC)cc(C)nc2c1 was what?
(A) 0

(Q) For O=C(NC1CCN(Cc2ccccc2)CC1)c1ccc(-c2nc3cc(Cl)c(Cl)cc3[nH]2)s1 , what call appears in the results of this test?
(A) 0

(Q) Kindly provide the recorded test outcome for the following compound: Clc1ccc(Nc2nc(Nc3ccc(Cl)c(Cl)c3)nc(Sc3nc4ccccc4[nH]3)n2)cc1Cl
(A) 0

(Q) Hi team, can someone confirm the assay call for COc1ccc2oc(=O)c(C#N)c(O)c2c1 ?
(A) 0

(Q) Check the results log: what was the call for O=C(/C=C/c1ccc(Cl)c(Cl)c1)NC1CCC(CN2CCC(c3nc4ccccc4n3CCCO)CC2)CC1 (centres undefined) ?
(A) 0

(Q) Tell me the recorded outcome of this test for O=C(Nc1cccc(-c2csc(-c3nc4ccccc4[nH]3)c2)c1)c1ccncc1 .
(A) 1

(Q) Each compound tested received a call. Report the one for COc1ccc2nccc(N3CCC(O)(CCNCc4ccc5c(n4)NC(=O)CS5)CC3)c2n1 .
(A) 0

Ref: PubChem BioAssay
